System: Mus musculus
experiment: Effect on acute pulmonary thromboembolism in mice at 100 mg/kg expressed as no. of killed or paralyzed to no. of tested observed after 10 min
Type: functional
measure: No. of killed or paralyzed
Give the figure only, with no unit attached.

[in] Kindly state the measured No. of killed or paralyzed obtained for "C/C=C/c1c(OC)cc(OC)cc1OC" with Mus musculus.
[out] 30

[in] How about "C/C=C/c1ccc(OC)c(OC)c1OC" ?
[out] 14

[in] # repeat for "C/C=C/c1cc(OC)cc(OC)c1OC"
[out] 12

[in] And what about the compound "C/C=C/c1cc(OC)c(OC)c(OC)c1" ?
[out] 17

[in] C/C=C/c1cc(OC)c(OC)cc1OC [TRANS-ASARONE] ?
[out] 10

[in] Also need O=C(c1ccccc1)c1ccc2n1CCC2C(=O)O (stereo unspecified) , thanks.
[out] 16
